Cited source: patent US20050101595A1

Molecular target: human CDK4 and genetically truncated (1-264) cyclin D3 (Homo sapiens, UniProt P11802)
Sequence (P11802 whole entry, the tested form may be a part): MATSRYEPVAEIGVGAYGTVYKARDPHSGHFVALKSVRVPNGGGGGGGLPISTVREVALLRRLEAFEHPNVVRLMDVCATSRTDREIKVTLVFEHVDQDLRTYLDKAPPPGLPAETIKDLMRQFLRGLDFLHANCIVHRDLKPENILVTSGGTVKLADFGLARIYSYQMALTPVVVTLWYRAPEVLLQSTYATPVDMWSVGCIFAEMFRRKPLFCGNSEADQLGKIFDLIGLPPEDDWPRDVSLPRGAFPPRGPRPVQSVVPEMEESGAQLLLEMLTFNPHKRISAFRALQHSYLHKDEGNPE
Sequence (P30281 1-264 partner): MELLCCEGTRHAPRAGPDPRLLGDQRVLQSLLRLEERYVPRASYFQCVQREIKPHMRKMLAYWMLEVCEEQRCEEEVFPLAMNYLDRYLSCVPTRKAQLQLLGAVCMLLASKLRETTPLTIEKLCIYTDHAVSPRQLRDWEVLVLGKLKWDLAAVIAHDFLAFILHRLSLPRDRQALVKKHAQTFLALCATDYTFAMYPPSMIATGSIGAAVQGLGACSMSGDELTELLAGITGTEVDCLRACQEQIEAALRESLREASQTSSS
Experiment: Inhibition of CDK4/Cyclin D Retinoblastoma Kinase Activity
Settings: apparent Ki, CDK4/truncated cyclin D3, Rb fragment substrate, 25 μM ATP
Counter-ions that a name gives are not always drawn.
READOUT_NAME: Ki (nM)

Example entries begin here.
- MOLECULE: "CN1CCC[C@H](Oc2ccc(S(=O)(=O)N3CCC(Nc4nc(N)c(C(=O)c5c(F)cccc5F)s4)CC3)cn2)C1 [Example H29, Hydrochloride]"
  UNITS_SYMBOL: "nM"
  Ki: 1.3
- MOLECULE: "Nc1nc(NC2CCN(S(=O)(=O)c3ccc(CCN4CCC(O)C4)nc3)CC2)sc1C(=O)c1c(F)cccc1F (stereo not shown) [Example N7, Hydrochloride Salt]"
  UNITS_SYMBOL: "nM"
  Ki: 0.35
- MOLECULE: "Nc1nc(NC2CCN(S(=O)(=O)c3cncc(Cl)n3)CC2)sc1C(=O)c1c(F)cccc1F"
  UNITS_SYMBOL: "nM"
  Ki: 1.1

(a) CN1CCN(Cc2ccc(S(=O)(=O)N3CCC(Nc4nc(N)c(C(=O)c5c(F)cccc5F)s4)CC3)cc2)CC1 [Example J7, Hydrochloride Salt]
(b) COc1cc(C(=O)N2CCC(Nc3nc(N)c(C(=O)c4c(F)cccc4F)s3)CC2)ccc1C [Example D12, Trifluoroacetic Acid Salt]
Exercise: Hi, I'm comparing a with b and wondering which one has the bigger number for Ki. Any idea? Respond using the label that marks the chosen record.
Solution: b
(b: 14 nM, a: 0.78 nM)

(1) Nc1nc(NC2CCN(S(=O)(=O)CCCN3CCc4ccccc4C3)CC2)sc1C(=O)c1c(F)cccc1F
(2) N#Cc1ccc(S(=O)(=O)N2CCC(Nc3nc(N)c(C(=O)c4c(F)cccc4F)s3)C2)cc1 (stereo not shown)
Exercise: Hi, I'm comparing 1 with 2 and wondering which one has the bigger number for Ki. Any idea? Respond using the label that marks the chosen record.
Solution: 2
(2: 360 nM, 1: 1.5 nM)
